target: Catechol O-methyltransferase (Homo sapiens); experiment: Inhibition of recombinant wild-type human COMT expressed in Escherichia coli BL21 using 4-nitrocatechol-Alexa488 as substrate in presence of cofactor SAM preincubated for 1 min followed by substrate addition and measured every 60 sec up to 180 times by fluorescence based microtiter plate reader analysis
Sequence (P21964 whole entry): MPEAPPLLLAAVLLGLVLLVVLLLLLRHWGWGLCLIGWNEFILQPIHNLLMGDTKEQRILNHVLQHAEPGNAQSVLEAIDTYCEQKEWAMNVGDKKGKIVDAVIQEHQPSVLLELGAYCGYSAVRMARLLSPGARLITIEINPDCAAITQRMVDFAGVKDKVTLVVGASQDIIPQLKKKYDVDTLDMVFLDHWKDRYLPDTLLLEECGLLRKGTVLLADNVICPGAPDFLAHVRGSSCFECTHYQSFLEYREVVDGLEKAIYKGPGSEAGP
Could you please classify the records by IC50 using these ranges: lo (below 1 µM), mid (1 µM to below 8 µM), hi (8 µM or more)

Which IC50 band matches COc1ccc([C@@H](C)c2cc(-c3sc(C)nc3C)n[nH]2)cc1 ? lo

Also check Cc1nc(C)c(-c2cc([C@@H](C)c3ccccc3)[nH]n2)s1 mid

Also check COc1ccc([C@H](C)c2cc(-c3sc(C)nc3C)n[nH]2)cc1 lo

Also check Cc1nc(C)c(-c2cc(C(C)c3ccccc3)[nH]n2)s1 (stereo unspecified) lo

Also check Cc1nc(C)c(-c2cc(Cc3ccccc3)[nH]n2)s1 mid

Also check CCc1nc(C)c(-c2cc[nH]n2)s1 hi

Also check Cc1nc(C)c(-c2cc(C3(c4ccccc4)CC3)[nH]n2)s1 lo

Also check Cc1nc(C)c(-c2cc(C(C)(C)c3ccccc3)[nH]n2)s1 mid

Also check Cc1nc(Cc2ccccc2)sc1-c1cc[nH]n1 hi

Also check Cc1ccc(-c2nc(C)c(-c3cc[nH]n3)s2)cc1 hi

Also check CCC(c1ccccc1)c1cc(-c2sc(C)nc2C)n[nH]1 (stereo unspecified) hi

Also check Cc1nc(C2CC2)c(-c2cc[nH]n2)s1 hi

Also check c1ccc(-c2ncc(-c3cc[nH]n3)s2)cc1 hi

Also check Cc1nc(-c2ccccc2)sc1-c1cc[nH]n1 hi

* * *

assay: Solubility of compound; assay type: physicochemical
METRIC NAME: solubility (µg/mL)
Give just the number in µg/mL; leave the unit off.

Item COc1ccc(Cc2cc(-c3sc(C)nc3C)n[nH]2)cc1 has what recorded solubility? 2

Also check Cc1nc(C)c(-c2cc(CCc3ccccc3)[nH]n2)s1 4

Also check Cc1nc(C)c(-c2cc(C(C)c3ccccc3)[nH]n2)s1 (stereo not drawn) 3
